# Protocol: NCI Yeast Anticancer Drug Screen. Data for the bub3 strain (AID 167)
# Settings: S. cerevisiae bub3 mutant strain, at 1.2 µM, stronger effect = higher value
The panel holds about 79,000 compounds, 15% with a hit somewhere; the sample as a whole holds those more often. The source made the active and inactive calls. Cut-off read from the data, not from the text of the source: active = growth inhibition above about 70%; inactive = the rest.
Assay endpoint: growth inhibition

>  <Compound>
C=C[C@H]1CN2CC[C@H]1C[C@@H]2[C@@H](O)c1ccnc2ccccc12

>  <growth inhibition>
3% (inactive)

$$$$

Input Cc1cc[n+](C2=C(Nc3cccc(C(F)(F)F)c3)C(=O)c3ccccc3C2=O)cc1 , output reported growth inhibition.
4% (inactive)

Input Cc1cccc(NC(=O)CBr)c1 , output reported growth inhibition.
13% (inactive)

Input CCNCC(=O)O[C@]1(CC)C(=O)OCc2c1cc1n(c2=O)Cc2cc3ccccc3nc2-1 , output reported growth inhibition.
28% (inactive)

Input CCCCCCCCCCCCCCCCP(=O)(O)OP(=O)(O)OCC1OC(n2ccc(N)nc2=O)C(O)C1O (stereo not given) , output reported growth inhibition.
-1% (inactive)

Input COc1cc(C2c3cc4c(cc3[C@@H](Nc3ccc(N)cc3)C3COC(=O)[C@H]23)OCO4)cc(OC)c1O (stereo not given in full) , output reported growth inhibition.
-33% (inactive)

Input Oc1cccc2cccnc12 , output reported growth inhibition.
-2% (inactive)

Input CC1=C[C@H]2O[C@@H]3C[C@H]4OC(=O)/C=C\C=C\C(C(C)O)OCC(O)C(C)CC(=O)OC[C@@]2(C[C@@H]1O)[C@]4(C)[C@@]31CO1 (stereo not given in full) , output reported growth inhibition.
-46% (inactive)

Input CC1(Cl)CC(C)(/C=C/Cl)C(Cl)CC1Cl (stereo not given) , output reported growth inhibition.
2% (inactive)

Input CS(=O)(=O)OCCN(CCOS(C)(=O)=O)c1ccc(C=O)cc1 , output reported growth inhibition.
-6% (inactive)

----------
# Protocol: NCI Yeast Anticancer Drug Screen. Data for the bub3 strain (AID 167)
# Settings: S. cerevisiae bub3 mutant strain, at 50.0 µM, stronger effect = higher value
This is part of a sample that, as a whole, favours compounds with a hit. Of some 79,000 tested, about 15% had one in any assay. The source made the active and inactive calls. No stated cut-off is given here; in the data, active means growth inhibition above about 70%; inactive means the rest.
Below, each entry is listed with its recorded growth inhibition.

Look over these answered cases.
>  <Compound>
C[As](C)SCCC(CCCCC(=O)O)S[As](C)C (stereo not drawn)

>  <Observed value>
76.5% (active)

$$$$
>  <Compound>
CNC(Cc1ccccc1)c1ccc(OC)c(OC)c1 (stereo not drawn)

>  <Observed value>
14.3% (inactive)

$$$$

Input CN(C)C(=O)Oc1c(Cl)cc(Cl)c(Cl)c1Cl , output reported growth inhibition.
-36% (inactive)

Input OC(c1ccc(Br)cc1)C(Cl)(Cl)Cl (stereo not drawn) , output reported growth inhibition.
81.7% (active)

Input O=C(O)CCCc1cc(I)c(N(CCCl)CCCl)c(I)c1 , output reported growth inhibition.
48% (inactive)

Input CC(O[Si](c1ccccc1)(c1ccccc1)C(C)(C)C)[C@H](NC(=O)OC(C)(C)C)C(=O)O (stereo partly drawn) , output reported growth inhibition.
55.5% (inactive)

Input Cc1ccc(C(=O)CCl)o1 , output reported growth inhibition.
99.2% (active)

Input CC1=C[C@H]2O[C@@H]3C[C@H]4OC(=O)/C=C\C=C\C(C(C)O)OCC(O)C(C)CC(=O)OC[C@@]2(C[C@@H]1O)[C@]4(C)[C@@]31CO1 (stereo partly drawn) , output reported growth inhibition.
90.8% (active)

Input c1ccc2c(c1)c1cccc3c4c5ccccc5c5cccc(c2c13)c54 , output reported growth inhibition.
-1.25% (inactive)

Input C=CO/C(C)=C(\[Se]c1ccccc1)C(C)=O , output reported growth inhibition.
75% (active)

----------
# Protocol: NCI Yeast Anticancer Drug Screen. Data for the bub3 strain (AID 167)
# Settings: S. cerevisiae bub3 mutant strain, at 11.0 µM
The panel holds about 79,000 compounds, 15% with a hit somewhere; the sample as a whole holds those more often. The source made the active and inactive calls. Rule as the data show it: active = growth inhibition above about 70%; inactive = the rest.
Reply using exactly one outcome from active, inactive

Hey, what did the test say about CCC1(O)C(=O)OCc2c1cc1n(c2=O)Cc2cc3ccccc3nc2-1 (stereo not given) ?
inactive

Hey, what did the test say about O=C1C2CC(Cl)C(SSC3CC4C(=O)N(SC(Cl)(Cl)C(Cl)Cl)C(=O)C4CC3Cl)CC2C(=O)N1SC(Cl)(Cl)C(Cl)Cl (stereo not given) ?
active

Hey, what did the test say about COC1CC(CC2CCC(C)C(C(C)C(=O)O)O2)OC2(OC(C)(C3CCC(C)(C4OC(C5OC(O)(CO)C(C)CC5C)CC4C)O3)CC2C)C1C (stereo not given) ?
inactive

Hey, what did the test say about CCOP(=S)(S)OCC.[Pd] ?
active

Hey, what did the test say about C[N+]1(CCCl)CC[N+](C)(CCCl)CC1 (stereo not given) ?
inactive

----------
# Protocol: NCI Yeast Anticancer Drug Screen. Data for the mec2-1 strain (AID 157)
# Settings: S. cerevisiae mec2-1 strain, at 5.0 µM (retest, dose inferred, filed as 0.5), stronger effect = higher value
About 79,000 compounds went through this panel and 15% of them were active in at least one assay; those are over-represented in the sample as a whole.
Assay endpoint: growth inhibition (%)
# output: bare number, implied unit %

Look over these answered cases.
>  <Compound>
FC(F)(F)C1(C(F)(F)F)O[Te]2(OC1(C(F)(F)F)C(F)(F)F)OC(C(F)(F)F)(C(F)(F)F)C(C(F)(F)F)(C(F)(F)F)O2

>  <Scale unit>
%

>  <Observed value>
10

$$$$
>  <Compound>
O=[N+]([O-])c1cc2c([N+](=O)[O-])cccc2o1

>  <Scale unit>
%

>  <Observed value>
8

$$$$
>  <Compound>
COc1cc(C[C@H]2c3cc(OC)c(OC)c(O)c3CCN2C)c(Oc2cc3c(cc2OC)-c2c(OC)c(OC)c(OC)c4c2C(C3)N(C)CC4)cc1OC (some centres undefined) (tested in a mixture with another compound)

>  <Scale unit>
%

>  <Observed value>
-1

$$$$

Input CCC1(O)C(=O)OCc2c1cc1n(c2=O)Cc2c-1nc1ccccc1c2OC (centres undefined) , output reported growth inhibition.
54

----------
Below, each entry is listed with its recorded growth inhibition.
# Protocol: NCI Yeast Anticancer Drug Screen. Data for the mlh1 rad18 strain (AID 175)
# Settings: S. cerevisiae mlh1 rad18 strain growth inhibition; at 50.0 µM (retest, dose inferred, filed as 5.0); stronger effect = higher value
Compounds without any hit were thinned out: in the full panel of roughly 79,000, 15% have a hit.
# output: bare number, implied unit %

Look over these answered cases.
>  <Molecule>
O=[N+]([O-])c1cc([N+](=O)[O-])c2cccnc2c1O

>  <Assay endpoint>
growth inhibition

>  <Observed value>
-7

$$$$
>  <Molecule>
O=C1C2CC(Cl)C(SSC3CC4C(=O)N(SC(Cl)(Cl)C(Cl)Cl)C(=O)C4CC3Cl)CC2C(=O)N1SC(Cl)(Cl)C(Cl)Cl (stereo not drawn)

>  <Assay endpoint>
growth inhibition

>  <Observed value>
96

$$$$
>  <Molecule>
O=C(COc1ccc(Cl)c(Cl)c1)N(Cc1ccccc1)Cc1ccc[n+](Cc2ccc(Cl)cc2S(=O)(=O)F)c1

>  <Assay endpoint>
growth inhibition

>  <Observed value>
96

$$$$
>  <Molecule>
C[CH2][Sn]([CH2]C)([O]C(C)=O)[O][Sn]([CH2]C)([CH2]C)[O]C(C)=O

>  <Assay endpoint>
growth inhibition

>  <Observed value>
86

$$$$
>  <Molecule>
CC(=O)O.CC(=O)[O-].CC(=O)[O-].[Co+3].[NH-]CC[NH-].[NH-]CC[NH-]

>  <Assay endpoint>
growth inhibition

>  <Observed value>
97

$$$$

Input COc1cc2c3c(c1)-c1c(ccc(OC)c1OC)CC3N(CCCl)CC2 (stereo not drawn) , output reported growth inhibition.
78

Input O=[N+]([O-])/C=C/c1cc2c(cc1Br)OCO2 , output reported growth inhibition.
88

Input O=C1[O][Hg][c]2cccc3cccc1c23 , output reported growth inhibition.
99

Input CC(C)O.CC(C)O.OCCN(CCO)CCO.OCCN(CCO)CCO.[Ti+2] , output reported growth inhibition.
39

Input CNC(=O)N1CN(c2ccccc2)C2(CCN(CCCC(=O)c3ccc(F)cc3)CC2)C1=O , output reported growth inhibition.
39

Input NC(=O)/C=C/C(=O)O (tested in a mixture with another compound) , output reported growth inhibition.
2

Input CCOP(=O)(OCC)Oc1cc(C)c(SC#N)c(C)c1 , output reported growth inhibition.
76

----------
# Protocol: NCI Yeast Anticancer Drug Screen. Data for the cln2 rad14 strain (AID 165);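 note: 0% = growth equal to vehicle treated cultures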
# Settings: S. cerevisiae cln2 rad14 strain, at 5.0 µM (retest, dose inferred, filed as 0.5), stronger effect = higher value
Compounds without any hit were thinned out: in the full panel of roughly 79,000, 15% have a hit.
Below, each entry is listed with its recorded growth inhibition.
# output: bare number, implied unit %

>  <Molecule>
CC12CCC(O)CC1=CCC1C2CCC2(C)C(NC(=O)C3CCCN3C(=O)CN(CCCl)CCCl)CCC12 (centres undefined)

>  <growth inhibition (%)>
-5

$$$$

Input c1ccc2c(NCCCCCCNc3c4ccccc4nc4ccccc34)c3ccccc3nc2c1 , output reported growth inhibition.
20

Input CC(=O)O/C(=C1\C[C@H]2[C@@H]3CC=C4C[C@@H](OC(C)=O)CC[C@]4(C)[C@H]3CC[C@]2(C)C1=O)C(F)(F)F , output reported growth inhibition.
37

Input CC(C)C1(NC(=O)C2C=C3c4cccc5[nH]cc(c45)CC3N(C)C2)OC2(O)C3CCCN3C(=O)C(Cc3ccccc3)N2C1=O (centres undefined) (tested in a mixture with another compound) , output reported growth inhibition.
6

Input S=C(S)N1CCOCC1 , output reported growth inhibition.
-2

Input O=C(CCl)Nc1cccc(Cl)c1 , output reported growth inhibition.
2

Input O=C1NC(=O)C(C(c2ccnc3ccccc23)C2C(=O)NC(=O)NC2=O)C(=O)N1 , output reported growth inhibition.
3

Input COc1ccccc1[As]=O (centres undefined) , output reported growth inhibition.
-14

Input CC(=O)[O-].[Zn].c1ccc(/C(=N\Nc2ccccn2)c2ccccn2)cc1 , output reported growth inhibition.
26
